# ASSAY OVERVIEW: Acute toxicity (LD50) in mice
# Format: in vivo, weißen Mäusen
# EXPERIMENTAL PARAMETERS: mouse, in vivo, ip; intraabdominale Applikation an weißen Mäusen; read-out: LD50
MEASUREMENT NAME: LD50 (mg/kg)
Form entry: value (mg/kg) — number only.

Inquiry: Bench note: what LD50 did C=COCCNC(=S)S show?
Reply text: 260

Values from patent EP0252983B1
